Biological target: DNA (cytosine-5)-methyltransferase 3A (Homo sapiens) (UniProt Q9Y6K1)
Sequence (Q9Y6K1 whole entry, looked up): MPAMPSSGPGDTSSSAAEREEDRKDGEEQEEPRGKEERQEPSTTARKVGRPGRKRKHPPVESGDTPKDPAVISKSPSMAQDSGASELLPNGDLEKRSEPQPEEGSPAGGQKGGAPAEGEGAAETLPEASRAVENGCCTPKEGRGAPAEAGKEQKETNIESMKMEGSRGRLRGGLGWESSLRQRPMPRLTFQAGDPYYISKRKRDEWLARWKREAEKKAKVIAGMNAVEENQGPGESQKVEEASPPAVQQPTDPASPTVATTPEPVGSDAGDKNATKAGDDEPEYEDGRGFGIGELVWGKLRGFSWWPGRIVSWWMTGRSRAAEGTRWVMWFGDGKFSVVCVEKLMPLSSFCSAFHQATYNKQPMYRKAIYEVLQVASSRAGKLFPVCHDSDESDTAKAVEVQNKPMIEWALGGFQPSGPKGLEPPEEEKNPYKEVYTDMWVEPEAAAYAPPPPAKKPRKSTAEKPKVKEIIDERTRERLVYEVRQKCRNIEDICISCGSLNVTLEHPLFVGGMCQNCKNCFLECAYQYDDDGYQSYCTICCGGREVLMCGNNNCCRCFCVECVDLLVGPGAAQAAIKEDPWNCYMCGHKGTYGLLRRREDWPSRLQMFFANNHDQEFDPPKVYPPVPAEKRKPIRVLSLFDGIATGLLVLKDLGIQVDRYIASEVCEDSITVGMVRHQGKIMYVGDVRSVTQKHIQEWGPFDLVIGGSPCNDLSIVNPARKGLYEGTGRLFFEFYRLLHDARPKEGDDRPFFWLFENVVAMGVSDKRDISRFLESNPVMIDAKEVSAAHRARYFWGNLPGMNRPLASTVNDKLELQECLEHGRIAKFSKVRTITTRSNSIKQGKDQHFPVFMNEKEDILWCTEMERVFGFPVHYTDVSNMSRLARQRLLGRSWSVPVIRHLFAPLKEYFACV
Experiment: Inhibition of hDNMT3A-c using SAM and oligonucleotide with CpG site at 32 uM incubated for 2 hrs by fluorescence-based assay relative to control
Calls of active or inactive are those of the source. The calls are words filed in the database; no cut-off is given here.
Measurement kind: inhibition

See these solved cases before continuing.
Molecule: O=C1c2ccccc2S[C@@H](c2cccc(C(F)(F)F)c2)[C@@]1(Br)[N+](=O)[O-] (relative stereo)
Measurement kind: inhibition
Endpoint value: 63%

Molecule: COc1cccc(C2Nc3ccccc3C(=O)C2(Br)[N+](=O)[O-])c1 (racemic)
Measurement kind: inhibition
Endpoint value: 100%

Molecule: O=C1c2ccccc2NC(c2ccccc2)C1[N+](=O)[O-] (stereo unspecified)
Measurement kind: inhibition
Endpoint value: inactive

Molecule: O=C1c2ccccc2S[C@@H](c2ccccc2)[C@@]1(Br)[N+](=O)[O-] (relative stereo)
Measurement kind: inhibition
Endpoint value: 68%

Molecule: O=C1c2ccccc2S[C@@H](c2cccc(C(F)(F)F)c2)[C@]1(Br)[N+](=O)[O-] (relative stereo)
Measurement kind: inhibition
Endpoint value: 78%

Would you kindly look at the next entry?
Query :: Find the measured inhibition: item COc1cccc(C2Nc3ccccc3C(=O)C2[N+](=O)[O-])c1 (stereo unspecified) , target or system DNA (cytosine-5)-methyltransferase 3A (Homo sapiens) (UniProt Q9Y6K1).
Result :: inactive

* * *

The following molecules are shown together with reported half-life values.
Assay: Stability of compound in DNMT methylation buffer by HPLC analysis
Assay type: physicochemical
Write the figure, then the unit, nothing else.

Molecule: O=C1c2ccccc2S[C@@H](c2ccccc2F)[C@]1(Br)[N+](=O)[O-] (relative stereo)
half-life: 48 min

Molecule: O=C1c2ccccc2S[C@@H](c2cccc(C(F)(F)F)c2)[C@]1(Br)[N+](=O)[O-] (relative stereo)
half-life: 192 min

Molecule: O=C1c2ccccc2S[C@@H](c2ccccc2)[C@]1(Br)[N+](=O)[O-] (relative stereo)
half-life: 72 min

Query :: Query (molecule): O=C1c2ccccc2S[C@@H](c2ccccc2F)[C@@]1(Br)[N+](=O)[O-] (relative stereo) ; field requested: half-life
Result :: 66 min

Query :: Try COc1cccc(C2Nc3ccccc3C(=O)C2(Br)[N+](=O)[O-])c1 (racemic) next.
Result :: 42 min

Query :: Try O=C1c2ccccc2S[C@@H](c2ccccc2)[C@@]1(Br)[N+](=O)[O-] (relative stereo) next.
Result :: 12 min

Query :: Try COc1cccc(C2Nc3ccccc3C(=O)C2(Cl)[N+](=O)[O-])c1 (racemic) next.
Result :: 138 min

Query :: Try O=C1c2ccccc2NC(c2ccccc2)C1(Br)[N+](=O)[O-] (racemic) next.
Result :: 18 min

Query :: Try O=C1c2ccccc2S[C@H](c2cccc([N+](=O)[O-])c2)[C@@]1(Br)[N+](=O)[O-] (relative stereo) next.
Result :: 54 min

Query :: Try O=C1c2ccccc2S[C@@H](c2cccc(C(F)(F)F)c2)[C@@]1(Br)[N+](=O)[O-] (relative stereo) next.
Result :: 12 min

* * *

The following compounds are shown together with reported inhibition values.
Target: DNA (cytosine-5)-methyltransferase 3A (Homo sapiens)
Test: Inhibition of hDNMT3A-c using SAM and oligonucleotide with CpG site at 32 uM incubated for 2 hrs by fluorescence-based assay relative to control

Compound: O=C1c2ccccc2S[C@@H](c2ccccc2F)[C@]1(Br)[N+](=O)[O-] (relative stereo)
inhibition: 67%
//
Compound: O=C1c2ccccc2S[C@H](c2cccc([N+](=O)[O-])c2)[C@@]1(Br)[N+](=O)[O-] (relative stereo)
inhibition: 59%
//
Compound: O=C1c2ccccc2S[C@@H](c2ccccc2F)[C@@]1(Br)[N+](=O)[O-] (relative stereo)
inhibition: 67%

Query :: Query (compound): O=C1c2ccccc2O[C@@H](c2ccccc2)[C@]1(Br)[N+](=O)[O-] (relative stereo) ; field requested: inhibition
Result :: 92%

Query :: Try O=C1c2ccccc2O[C@@H](c2ccccc2[N+](=O)[O-])[C@]1(Cl)[N+](=O)[O-] (relative stereo) next.
Result :: 84%

Query :: Try O=C1c2ccccc2NC(c2ccccc2)C1(Br)[N+](=O)[O-] (racemic) next.
Result :: 89%

Query :: Try O=C1c2ccccc2S[C@@H](c2ccccc2)[C@]1(Br)[N+](=O)[O-] (relative stereo) next.
Result :: 86%

Query :: Try COc1cccc(C2Nc3ccccc3C(=O)C2(Cl)[N+](=O)[O-])c1 (racemic) next.
Result :: 56%
